Assay: compounds binding Alexa647 anti-His antibody – biochemical, small-molecule microarray, 635 nm fluorescence, artefact control for SMM control protein annotation, primary screen (AID 1128);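 note: score merges feature fluorescence with signal-to-noise for each printed compound spot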
Settings: higher = more signal
measure_name: composite z-score

>>> test_value("CC(C)[Si](C#CCCCC#N)(Oc1ccccc1Br)C(C)C")
0.259
>>> test_value("CCOC(=O)C1=C[C@@H](C(C)C)N(S(=O)(=O)c2ccc(C)cc2)[C@H]1c1ccccc1F")
0.654
>>> test_value("CCCC[C@@H]1C[C@H]1[C@@H](NC(=O)c1cccnc1)c1ccc(Cl)cc1")
-1.38
>>> test_value("COC(=O)[C@@]1(Cc2ccc(OC)cc2)[C@H]2c3cc(C(=O)N4CCCC4)n(CCc4ccc(O)c(O)c4)c3C[C@H]2CN1C(=O)c1ccccc1")
2.44
>>> test_value("CCCC=C(CCC)[C@@H](NS(=O)(=O)c1ccc(Cl)cc1)c1ccc(C(=O)OC)cc1")
0.817
>>> test_value("[N-]=[N+]=NCc1ccccc1[C@@H]1OC(c2ccc(OCCCO)cc2)=N[C@]1(CCS(=O)(=O)c1ccccc1)C(N)=O")
3.49
>>> test_value("NC(=O)[C@@H]1[C@H]2C(=O)O[C@H](c3ccccc3)[C@H](c3ccccc3)N2[C@H](c2ccc(OCCO)cc2)[C@@]12C(=O)Nc1ccc(C#CC3=CCCCC3)cc12")
0.823
>>> test_value("O=C1C2C=CC(C(O)c3ccc4c(c3)OCO4)N(Nc3ccc([N+](=O)[O-])cc3)C2C(=O)N1c1ccccc1 (stereo not given)")
1.29
>>> test_value("COCCOC(=O)N1C(=O)[C@@]2(c3cc(C#CCCO)ccc31)[C@H](c1ccc(O)cc1)N1[C@H](c3ccccc3)[C@H](c3ccccc3)OC(=O)[C@H]1[C@@H]2C(=O)N1CCN(c2ncccn2)CC1")
1.34
>>> test_value("CCOC(=O)C[C@H]1[C@H](OC(=O)c2ccc(-c3ccccc3)cc2)[C@@H](NC(=O)c2ccccc2)c2cc(OCCCO)ccc2N1C(=O)Cc1ccc(OC)cc1")
-0.913
>>> test_value("O=C1O[C@@H](c2ccccc2)[C@@H](c2ccccc2)N2[C@@H](c3ccccc3OCCO)[C@]3(C(=O)Nc4ccccc43)[C@@H](C(=O)O)[C@H]12")
0.969
>>> test_value("CC(c1ccccc1)C(O)C1C=CC2C(=O)N(c3ccccc3)C(=O)C2N1Nc1ccccc1 (stereo not given)")
0.546
>>> test_value("COc1cc2c(cc1O)C(c1cccs1)N(Cc1ccc([N+](=O)[O-])o1)CC2 (stereo not given)")
0.737
>>> test_value("CC=CC(O)C1C=CC2C(=O)N(C)C(=O)C2N1N(c1ccccc1)c1ccccc1 (stereo not given)")
0.573
>>> test_value("CC(C)[C@@H](C(=O)O)n1cc(C2(O)CCCCC2)nn1")
0.948
>>> test_value("Cc1ccc(S[C@]2(C(=O)O)CC(=O)N(C(C)C)[C@@H]2c2ccc(CO)cc2)cc1")
0.715
>>> test_value("COCCCNC(=O)[C@@]1(Cc2ccccc2CN=[N+]=[N-])N=C(c2ccc(OCCCO)cc2)O[C@H]1c1ccccc1CN=[N+]=[N-]")
2.03
>>> test_value("C[N+](C)(C)CCCC[C@@H]1NC(=O)[C@H]2C[C@@H](C(=O)NCCCCCCNC(=O)CS)[C@@H](c3ccc(O)cc3)N2C1=O")
1.44
>>> test_value("CC(C)NC(=O)[C@@H]1c2ccccc2C(=O)N(C(C)C)[C@H]1c1ccc(CO)cc1")
-1.51
>>> test_value("COC(=O)c1c(CC[C@@H](CO)NC(=O)N[C@H](Cc2ccccc2)Cn2cc(-c3ccccn3)nn2)oc(C(C)=O)c1C(=O)OC")
1.52
>>> test_value("CN1C(=O)C2C=CC(C(O)c3ccc(F)cc3)N(N(c3ccccc3)c3ccccc3)C2C1=O (stereo not given)")
0.202
>>> test_value("O=C1C2C=CC(C(O)C=Cc3ccc([N+](=O)[O-])cc3)N(n3cnnc3)C2C(=O)N1Cc1ccccc1 (stereo not given)")
1.88
>>> test_value("O=C(CS)NCCCCCNC(=O)[C@@H]1C[C@@H]2C(=O)NCC(=O)N2[C@@H]1c1ccc(O)cc1")
1.79
>>> test_value("COC(=O)C(CC#Cc1ccc2c(c1)[C@]1(C(=O)N2)[C@H](c2ccc(O)cc2)N2[C@H](c3ccccc3)[C@H](c3ccccc3)OC(=O)[C@H]2[C@@H]1C(=O)N1CCN(c2ncccn2)CC1)C(=O)OC")
3.29
>>> test_value("COCC(=C=CC[C@H](O)c1cccc(OCCO)c1)CCO")
-0.115
>>> test_value("NC(=O)NCC#Cc1ccc2c(c1)[C@]1(C(=O)N2)[C@H](C(=O)O)[C@H]2C(=O)O[C@H](c3ccccc3)[C@H](c3ccccc3)N2[C@@H]1c1ccc(O)cc1")
0.0795
>>> test_value("COc1ccccc1CN1C(=O)c2ccccc2[C@@H](C(=O)NCc2ccccc2)[C@@H]1c1ccc(CO)cc1")
1.99
>>> test_value("CCOC(=O)C[C@H]1[C@H](OC(=O)c2ccc(C(=O)c3ccccc3)cc2)[C@@H](NC(=O)c2ccccc2)c2cc(OCCCO)ccc2N1C(=O)c1ccccc1")
0.0654
>>> test_value("Cc1ccc(S[C@]2(C(=O)NCC(C)C)CC(=O)N(Cc3cc(C(F)(F)F)cc(C(F)(F)F)c3)[C@@H]2c2ccc(CO)cc2)cc1")
0.63
>>> test_value("COc1ccc(CCNC(=O)[C@@]2(c3ccc([N+](=O)[O-])cc3)CC(=O)N(CC34CC5CC(CC(C5)C3)C4)[C@@H]2c2ccc(CO)cc2I)cc1")
1.35
